Data origin, for the record: patent US20250026769A1

# key: entry, value: ΔTm at 100 µM
# system name: rPAPD5 (Homo sapiens, UniProt Q8NDF8)
# Construct: made in house
# Sequence (Q8NDF8 68-698 isoform Q8NDF8-5 limits assumed): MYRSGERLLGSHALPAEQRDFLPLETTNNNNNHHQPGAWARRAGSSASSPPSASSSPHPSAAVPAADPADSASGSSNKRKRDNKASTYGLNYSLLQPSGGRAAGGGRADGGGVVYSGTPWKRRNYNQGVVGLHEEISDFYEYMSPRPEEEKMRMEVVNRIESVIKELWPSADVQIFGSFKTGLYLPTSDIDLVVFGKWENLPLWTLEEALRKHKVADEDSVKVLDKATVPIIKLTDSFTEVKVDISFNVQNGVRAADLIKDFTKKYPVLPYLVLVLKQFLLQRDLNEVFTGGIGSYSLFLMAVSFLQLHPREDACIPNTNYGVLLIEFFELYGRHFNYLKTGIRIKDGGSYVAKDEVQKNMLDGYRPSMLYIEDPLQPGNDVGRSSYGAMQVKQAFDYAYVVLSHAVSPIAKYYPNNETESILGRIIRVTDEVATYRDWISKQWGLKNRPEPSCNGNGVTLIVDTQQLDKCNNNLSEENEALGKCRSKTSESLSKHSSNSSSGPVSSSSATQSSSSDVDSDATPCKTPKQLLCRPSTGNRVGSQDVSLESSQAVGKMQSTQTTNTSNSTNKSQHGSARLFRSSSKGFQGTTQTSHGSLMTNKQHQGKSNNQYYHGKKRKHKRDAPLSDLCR
# experiment summary: differential scanning fluorimetry (DSF) binding and stabilization of rPAPD5
# condition summary: 100 μM test compound; shift vs DMSO control; read-out: ΔTm at 100 μM

[
  {
    "molecule": "O=C(O)c1ccccc1Nc1c(C2=CCNCC2)cnc2ccc(Cl)cc12 [Compound 206A-INT]",
    "readout value": "> 5 °C"
  },
  {
    "molecule": "O=C(O)c1ccccc1Nc1c(S(=O)(=O)N2CC(CO)(CCl)C2)cnc2ccc(Cl)cc12 [Compound 135A-BP]",
    "readout value": "> 5 °C"
  },
  {
    "molecule": "O=C(O)c1ccccc1Nc1c(C2CCSCC2)cnc2ccc(Cl)cc12 [Compound 298A]",
    "readout value": "> 5 °C"
  },
  {
    "molecule": "O=C(O)c1ccc(Cl)cc1Nc1c(S(=O)(=O)N2CCOCC2)cnc2ccc(Cl)cc12 [Compound 274A]",
    "readout value": "> 5 °C"
  },
  {
    "molecule": "O=C(O)c1ccccc1Nc1c(S(=O)(=O)N2CCOCC2)cnc2ccc(-c3ccc(Oc4ccccc4)nc3)cc12 [Compound 162A]",
    "readout value": "1 to 5 °C"
  }
]

Value of measured ΔTm at 100 µM for the entry O=C(O)c1ccccc1Nc1c(S(=O)(=O)N2CCOCC2)cnc2ccc(OC(F)(F)F)cc12 [Compound 131A] : > 5 °C

Value of measured ΔTm at 100 µM for the entry Cc1nc2ccc(Cl)cc2c(Nc2ccc(Cl)cc2C(=O)O)c1S(=O)(=O)N1CCSCC1 [Compound 423A] : > 5 °C

Value of measured ΔTm at 100 µM for the entry O=C(O)c1ccccc1Nc1c(S(=O)(=O)N2CCOCC2)cnc2ccc(-c3sccc3Cl)cc12 [Compound 140A] : 1 to 5 °C

Value of measured ΔTm at 100 µM for the entry N=c1cc(C(F)(F)F)c(-c2ccc3ncc(S(=O)(=O)N4CCOCC4)c(Nc4ccccc4C(=O)O)c3c2)c[nH]1 [Compound 143A] : 1 to 5 °C

Value of measured ΔTm at 100 µM for the entry O=C(O)c1ccccc1Nc1c(S(=O)(=O)N2CC3(COC3)C2)cnc2ccc(Cl)cc12 [Compound 135A] : > 5 °C

Value of measured ΔTm at 100 µM for the entry O=C(O)c1ccccc1Nc1c(C2CCOCC2)cnc2c1CCCC2 [Compound 204A-BP] : > 5 °C

Value of measured ΔTm at 100 µM for the entry O=C(O)c1ccccc1Nc1c(S(=O)(=O)N2CCOCC2)cnc2ccc(-c3cncc4[nH]ccc34)cc12 [Compound 160A] : > 5 °C

Value of measured ΔTm at 100 µM for the entry COc1ccc(Nc2c(C3CCOCC3)cnc3ccc(Cl)cc23)c(C(=O)O)c1 [Compound 307A] : > 5 °C

Value of measured ΔTm at 100 µM for the entry C/N=c1/ccc(-c2ccc3ncc(S(=O)(=O)N4CCOCC4)c(Nc4ccccc4C(=O)O)c3c2)c[nH]1 [Compound 151A] : 1 to 5 °C

Value of measured ΔTm at 100 µM for the entry O=C(O)c1ccc(Nc2c(S(=O)(=O)N3CCOCC3)cnc3ccc(Cl)cc23)c(C(=O)O)c1 [Compound 398A] : < 1 °C

* * *

# system name: rPAPD5 (Homo sapiens, UniProt Q8NDF8)
# Construct: made in house
# experiment summary: differential scanning fluorimetry (DSF) binding and stabilization of rPAPD5
# condition summary: 100 μM test compound; shift vs DMSO control; read-out: ΔTm at 100 μM
property name: ΔTm at 100 µM

Some solved entries appear below for comparison.
[
  {
    "molecule": "O=C(O)c1ccccc1Nc1c(S(=O)(=O)N2CCOCC2)cnc2ccc(-c3cncc(C4CC4)c3)cc12 [Compound 153A]",
    "system name": "rPAPD5 (Homo sapiens, UniProt Q8NDF8)",
    "ΔTm at 100 µM": "1 to 5 °C"
  },
  {
    "molecule": "COc1ccc(Nc2c(S(=O)(=O)N3CCOCC3)cnc3ccc(Cl)cc23)c(C(=O)O)c1 [Compound 270A]",
    "system name": "rPAPD5 (Homo sapiens, UniProt Q8NDF8)",
    "ΔTm at 100 µM": "> 5 °C"
  },
  {
    "molecule": "O=C(O)c1ccccc1Nc1c(-c2cnoc2)cnc2ccc(Cl)cc12 [Compound 212A]",
    "system name": "rPAPD5 (Homo sapiens, UniProt Q8NDF8)",
    "ΔTm at 100 µM": "1 to 5 °C"
  }
]

Proceeding to the next molecule to report its ΔTm at 100 µM.
Value of measured ΔTm at 100 µM for the entry O=C(O)c1ccccc1Nc1c(C2CCNCC2)cnc2ccc(Cl)cc12 [Compound 206A] : > 5 °C

* * *

# system name: rPAPD5 (Homo sapiens)
# Construct: made in house
# experiment summary: differential scanning fluorimetry (DSF) binding and stabilization of rPAPD5
# condition summary: 1 μM test compound (Table 2a); read-out: ΔTm at 1 μM
property name: ΔTm at 1 µM

Some solved entries appear below for comparison.
[
  {
    "compound": "O=C(O)c1cc(Cl)ccc1Nc1c(S(=O)(=O)N2CCSCC2)cnc2ccc(Cl)cc12 [Compound 349A]",
    "system name": "rPAPD5 (Homo sapiens)",
    "readout value": "> 5 °C"
  },
  {
    "compound": "O=C(O)c1cc(Cl)ccc1Nc1c(CN2CCSCC2)cnc2ccc(Cl)cc12 [Compound 428A]",
    "system name": "rPAPD5 (Homo sapiens)",
    "readout value": "> 5 °C"
  },
  {
    "compound": "O=C(O)c1cc(Cl)ccc1Nc1c(-c2cn[nH]c2)cnc2ccc(Cl)cc12 [Compound 354A]",
    "system name": "rPAPD5 (Homo sapiens)",
    "readout value": "1 to 5 °C"
  },
  {
    "compound": "O=C(O)c1cc(Cl)ccc1Nc1c(C2CCNC2)cnc2ccc(Cl)cc12 (stereo not shown) [Compound 357A]",
    "system name": "rPAPD5 (Homo sapiens)",
    "readout value": "> 5 °C"
  },
  {
    "compound": "O=C(O)c1cc(Cl)ccc1Nc1c(N2CCSCC2)cnc2ccc(Cl)cc12 [Compound 346A]",
    "system name": "rPAPD5 (Homo sapiens)",
    "readout value": "1 to 5 °C"
  },
  {
    "compound": "O=C(O)c1cc(Cl)cc(F)c1Nc1c(S(=O)(=O)N2CCSCC2)cnc2ccc(Cl)cc12 [Compound 427A]",
    "system name": "rPAPD5 (Homo sapiens)",
    "readout value": "> 5 °C"
  },
  {
    "compound": "O=C(O)c1cc(Cl)ccc1Nc1c(S(=O)(=O)N2CCC(F)(F)CC2)cnc2ccc(Cl)cc12 [Compound 345A]",
    "system name": "rPAPD5 (Homo sapiens)",
    "readout value": "> 5 °C"
  },
  {
    "compound": "Cc1cc2ncc(S(=O)(=O)N3CCSCC3)c(Nc3ccc(Cl)cc3C(=O)O)c2cc1Cl [Compound 411A]",
    "system name": "rPAPD5 (Homo sapiens)",
    "readout value": "> 5 °C"
  }
]

Value of measured ΔTm at 1 µM for the entry O=C(O)c1cc(Cl)ccc1Nc1c(S(=O)(=O)N2CCS(=O)(=O)CC2)cnc2ccc(Cl)cc12 [Compound 429A] : > 5 °C

Value of measured ΔTm at 1 µM for the entry O=C(O)c1cc(Cl)ccc1Nc1c(-c2cnco2)cnc2ccc(Cl)cc12 [Compound 353A] : 1 to 5 °C

* * *

# system name: rPAPD5 (Homo sapiens, UniProt Q8NDF8)
# Construct: made in house
# experiment summary: differential scanning fluorimetry (DSF) binding and stabilization of rPAPD5
# condition summary: 100 μM test compound; shift vs DMSO control; read-out: ΔTm at 100 μM
# Experimental: Binding and stabilization of rPAPD5 by test compounds was determined using differential scanning fluorimetry (DSF). DSF assays were performed to determine protein melting temperature using an indicator dye SYPRO orange (Thermo Fisher Scientific, S6651) diluted 1:5000 in […] of buffer containing […], […] (Jena Biosciences), 25 mM Tris-HCl, 5 mM MgCl2, 50 mM KCl. […] DMSO was used as a negative control. […]
property name: ΔTm at 100 µM

Some solved entries appear below for comparison.
[
  {
    "compound": "O=C(O)c1ccccc1Nc1c(S(=O)(=O)N2CCOCC2)cnc2ccc(NC3CCC(F)(F)CC3)cc12 [Compound 238A]",
    "ΔTm at 100 µM": "1 to 5 °C"
  },
  {
    "compound": "O=C(O)c1cc(Cl)ccc1Nc1c(-c2cnco2)cnc2ccc(Cl)cc12 [Compound 353A]",
    "ΔTm at 100 µM": "> 5 °C"
  },
  {
    "compound": "O=C(O)c1cccc(Br)c1Nc1c(S(=O)(=O)N2CCOCC2)cnc2ccc(Cl)cc12 [Compound 282A]",
    "ΔTm at 100 µM": "> 5 °C"
  }
]

Proceeding to the next compound to report its ΔTm at 100 µM.
Value of measured ΔTm at 100 µM for the entry O=C(O)c1cc(F)ccc1Nc1c(S(=O)(=O)N2CCOCC2)cnc2ccc(Cl)cc12 [Compound 267A] : > 5 °C
